Test system: RA-specific antibodies (4 anti-CCP2-positive sera)
Assay: Indirect (inhibition) ELISA: cross-reactivity of analytes with RA-specific antibodies, immobilized CCP2 as capture antigen
Assay type: binding, human
Conditions: acetylated derivative of the amino acid named; 0 = less than 1%
measurement.label: Cross-reactivity (%) of RA-specific antibody, modified α-amino acid: acetylation
Give just the numeric value; % need not be written.

// molecule NC(=O)NCCC[C@H](N)C(=O)O [Citrulline] , assay RA-specific antibodies (4 anti-CCP2-positive sera), Cross-reactivity (%) of RA-specific antibody, modified α-amino acid: acetylation value: 74

// molecule N[C@@H](CCC(=O)O)C(=O)O [Glutamic acid] , assay RA-specific antibodies (4 anti-CCP2-positive sera), Cross-reactivity (%) of RA-specific antibody, modified α-amino acid: acetylation value: 0

// molecule N[C@@H](CO)C(=O)O [Serine] , assay RA-specific antibodies (4 anti-CCP2-positive sera), Cross-reactivity (%) of RA-specific antibody, modified α-amino acid: acetylation value: 0

// molecule N[C@@H](CS)C(=O)O [Cysteine] , assay RA-specific antibodies (4 anti-CCP2-positive sera), Cross-reactivity (%) of RA-specific antibody, modified α-amino acid: acetylation value: 48

// molecule CC(C)C[C@H](N)C(=O)O [Leucine] , assay RA-specific antibodies (4 anti-CCP2-positive sera), Cross-reactivity (%) of RA-specific antibody, modified α-amino acid: acetylation value: 0

// molecule CC(C)[C@H](N)C(=O)O [Valanine] , assay RA-specific antibodies (4 anti-CCP2-positive sera), Cross-reactivity (%) of RA-specific antibody, modified α-amino acid: acetylation value: 0

// molecule CSCC[C@H](N)C(=O)O [Methionine] , assay RA-specific antibodies (4 anti-CCP2-positive sera), Cross-reactivity (%) of RA-specific antibody, modified α-amino acid: acetylation value: 0

// molecule NCC(=O)O [Glycine] , assay RA-specific antibodies (4 anti-CCP2-positive sera), Cross-reactivity (%) of RA-specific antibody, modified α-amino acid: acetylation value: 0

// molecule CC[C@H](C)[C@H](N)C(=O)O [Isoleucine] , assay RA-specific antibodies (4 anti-CCP2-positive sera), Cross-reactivity (%) of RA-specific antibody, modified α-amino acid: acetylation value: 0

* * *

System: RA-specific antibodies (4 anti-CCP2-positive sera)
Assay: Indirect (inhibition) ELISA: cross-reactivity of analytes with RA-specific antibodies, immobilized CCP2 as capture antigen
Assay type: binding, human
Settings: FIG. 1 and 2, analyte at 50 mM, 4 sera; result in words
measurement.label: Inhibition of antibody binding to the immobilized CCP2

compound	subject.of.test	endpoint.result
CC(=O)N[C@@H](CS)C(=O)O [acetyl-Cys]	RA-specific antibodies (4 anti-CCP2-positive sera)	strong inhibition
CC(=O)N[C@@H](CCCNC(N)=O)C(=O)O [acetyl-Cit]	RA-specific antibodies (4 anti-CCP2-positive sera)	strong inhibition

* * *

Test system: RA-specific antibodies (4 anti-CCP2-positive sera)
Test: Indirect (inhibition) ELISA: cross-reactivity of analytes with RA-specific antibodies, immobilized CCP2 as capture antigen
Type: binding, human
Settings: acetylated derivative of the amino acid named; 0 = less than 1%
measurement.label: Cross-reactivity (%) of RA-specific antibody, modified α-amino acid: acetylation
Give just the numeric value; % need not be written.

Cross-reactivity (%) of RA-specific antibody, modified α-amino acid: acetylation measured on N[C@@H](CC(=O)O)C(=O)O = 0

Cross-reactivity (%) of RA-specific antibody, modified α-amino acid: acetylation measured on O=C(O)[C@@H]1CCCN1 = 0

Cross-reactivity (%) of RA-specific antibody, modified α-amino acid: acetylation measured on N[C@@H](Cc1c[nH]cn1)C(=O)O = 0

Cross-reactivity (%) of RA-specific antibody, modified α-amino acid: acetylation measured on N[C@@H](Cc1c[nH]c2ccccc12)C(=O)O = 0

Cross-reactivity (%) of RA-specific antibody, modified α-amino acid: acetylation measured on N[C@@H](Cc1ccc(O)cc1)C(=O)O = 0

Cross-reactivity (%) of RA-specific antibody, modified α-amino acid: acetylation measured on C[C@@H](O)[C@H](N)C(=O)O = 0

Cross-reactivity (%) of RA-specific antibody, modified α-amino acid: acetylation measured on NC(=O)C[C@H](N)C(=O)O = 0

Cross-reactivity (%) of RA-specific antibody, modified α-amino acid: acetylation measured on C[C@H](N)C(=O)O = 0

Cross-reactivity (%) of RA-specific antibody, modified α-amino acid: acetylation measured on NC(=O)CC[C@H](N)C(=O)O = 0

Cross-reactivity (%) of RA-specific antibody, modified α-amino acid: acetylation measured on NCCCC[C@H](N)C(=O)O = 0

Cross-reactivity (%) of RA-specific antibody, modified α-amino acid: acetylation measured on N[C@@H](Cc1ccccc1)C(=O)O = 0

Cross-reactivity (%) of RA-specific antibody, modified α-amino acid: acetylation measured on N=C(N)NCCC[C@H](N)C(=O)O = 6

Source listed as patent US8323656B2.
